Let's look at some binders and their measured Cell AVRG (average KD, hGARP and hLRRC33 complexes).
# tested.target: Cell-associated proTGFβ1 complexes (hGARP-proTGFβ1 and hLRRC33-proTGFβ1)
# assay.procedure: BLI (Octet)
Reply with just the number (in nM).

Some binders with recorded Cell AVRG (average KD, hGARP and hLRRC33 complexes):
- binder: "Ab29 (antibody, IgG4, V domains shown) VH: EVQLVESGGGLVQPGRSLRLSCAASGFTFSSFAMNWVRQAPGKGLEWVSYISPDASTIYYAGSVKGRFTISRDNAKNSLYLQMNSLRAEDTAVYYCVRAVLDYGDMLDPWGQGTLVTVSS VL: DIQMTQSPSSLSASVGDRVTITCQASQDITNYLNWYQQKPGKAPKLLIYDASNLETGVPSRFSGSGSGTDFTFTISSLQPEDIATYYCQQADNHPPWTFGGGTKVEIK"
  observed: 0.304
- binder: "Ab28 (antibody, V domains shown) VH: EVQLVESGGGLVQPGGSLRLSCAASGFTFSSFSMDWVRQAPGKGLEWVSYISPDASTIYYADSVKGRFTISRDNAKNSLYLQMNSLRAEDTAVYYCVRGVLDYGDMLDPWGQGTLVTVSS VL: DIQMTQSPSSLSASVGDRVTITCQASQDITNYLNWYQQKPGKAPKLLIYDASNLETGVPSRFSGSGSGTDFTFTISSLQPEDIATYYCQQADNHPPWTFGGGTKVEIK"
  observed: 0.603

# input Please indicate Cell AVRG (average KD, hGARP and hLRRC33 complexes) recorded for Ab32 (antibody, IgG4, V domains shown) VH: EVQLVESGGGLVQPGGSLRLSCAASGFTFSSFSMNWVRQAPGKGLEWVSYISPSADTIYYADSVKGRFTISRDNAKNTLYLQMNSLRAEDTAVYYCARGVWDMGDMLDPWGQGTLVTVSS VL: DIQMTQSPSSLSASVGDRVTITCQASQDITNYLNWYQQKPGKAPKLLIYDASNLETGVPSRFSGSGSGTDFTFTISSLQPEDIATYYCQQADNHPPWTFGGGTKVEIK
# output 0.597

All figures here come from patent US20250282857A1.
